These measurements were taken from paper PMC10397247.

Listed next: entries and their corresponding interaction score.
- assayed_target: T1, 4H452-AA
- T1 chain: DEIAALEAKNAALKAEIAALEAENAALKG
- test_summary: two-hybrid library CCmax;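 further: natural log of median RNA to DNA barcode read ratio; higher means stronger binding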
- test_parameters: mean of both orientations
Lab note: jot the number down without any unit.

As a guide, the following entries are already answered.
- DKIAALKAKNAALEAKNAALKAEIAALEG [4H3001-AA]: -1.76
- DEIAALEAKIAALKAENAALKAENAALEG [4H347-AA]: -0.224
- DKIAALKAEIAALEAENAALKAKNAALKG [4H2592-AA]: -0.641
- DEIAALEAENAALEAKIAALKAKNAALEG [4H175-AA]: 0.385
- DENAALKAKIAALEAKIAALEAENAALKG [4H1828-AA]: -1.35
- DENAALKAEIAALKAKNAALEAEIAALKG [4H1650-AA]: -1.34

Given the binder DKNAALEAEIAALEAEIAALEAEIAALEG [4H3073-AA] , what is its reported interaction score? -1.22
